# experiment: Empirical plasma PK model
# Format: in vivo, rat
# studyConditions: rat plasma PK model; estimate (RSE, %)
measuredQuantity: ɷ_CLPL, interindividual variability

compound | measuredQuantity | readoutValue
CCN1CCC[C@H]1CNC(=O)c1c(OC)ccc(Br)c1OC [Remoxipride] | ɷ_CLPL, interindividual variability | 31.0 (12.0) %
Cc1nc2n(c(=O)c1CCN1CCC(c3noc4cc(F)ccc34)CC1)CCCC2 | ɷ_CLPL, interindividual variability | 72.5 (38.7) %
CN1CC[C@]23c4c5ccc(O)c4O[C@H]2[C@@H](O)C=C[C@H]3[C@H]1C5 | ɷ_CLPL, interindividual variability | 17.8 (39.5) %
CN(Cc1cnc2nc(N)nc(N)c2n1)c1ccc(C(=O)N[C@@H](CCC(=O)O)C(=O)O)cc1 [Methotrexate] | ɷ_CLPL, interindividual variability | 37.4 (46.8) %
C=C[C@H]1C[N@@]2CC[C@H]1C[C@@H]2[C@@H](O)c1ccnc2ccc(OC)cc12 | ɷ_CLPL, interindividual variability | 23.9 (15.3) %
Cc1nc2n(c(=O)c1CCN1CCC(c3noc4cc(F)ccc34)CC1)CCCC2O (centres unmarked) | ɷ_CLPL, interindividual variability | 42.0 (62.5) %
CCN1CCC[C@H]1CNC(=O)c1c(O)c(Cl)cc(Cl)c1OC [Raclopride] | ɷ_CLPL, interindividual variability | 14.4 (29.8) %
O=C1NC(=O)C(c2ccccc2)(c2ccccc2)N1 | ɷ_CLPL, interindividual variability | 73.8 (12.5) %

====

# experiment: Empirical plasma PK model
# Type: in vivo, rat
# studyConditions: rat plasma PK model; estimate (RSE, %)
Below, each of the compounds is paired with its reported ɷ_VPL, interindividual variability value.
measuredQuantity: ɷ_VPL, interindividual variability

compound | measuredQuantity | readoutValue
Cc1nc2n(c(=O)c1CCN1CCC(c3noc4cc(F)ccc34)CC1)CCCC2 | ɷ_VPL, interindividual variability | 53.7 (78.8) %
Cc1nc2n(c(=O)c1CCN1CCC(c3noc4cc(F)ccc34)CC1)CCCC2O (stereo not drawn) | ɷ_VPL, interindividual variability | 47.5 (81.4) %
CN1CC[C@]23c4c5ccc(O)c4O[C@H]2[C@@H](O)C=C[C@H]3[C@H]1C5 | ɷ_VPL, interindividual variability | 80.6 (17.2) %
O=C1NC(=O)C(c2ccccc2)(c2ccccc2)N1 | ɷ_VPL, interindividual variability | 75.0 (27.2) %
CCN1CCC[C@H]1CNC(=O)c1c(OC)ccc(Br)c1OC [Remoxipride] | ɷ_VPL, interindividual variability | 64.1 (32.9) %
CN(Cc1cnc2nc(N)nc(N)c2n1)c1ccc(C(=O)N[C@@H](CCC(=O)O)C(=O)O)cc1 [Methotrexate] | ɷ_VPL, interindividual variability | 40.4 (75.5) %

====

Below, each of the compounds is paired with its reported VPER1, distribution volume of the peripheral compartment 1 value.
# experiment: Empirical plasma PK model
# Format: in vivo, rat
# studyConditions: rat plasma PK model; parameter estimate (RSE, %)
measuredQuantity: VPER1, distribution volume of the peripheral compartment 1

compound | readoutValue
CN(Cc1cnc2nc(N)nc(N)c2n1)c1ccc(C(=O)N[C@@H](CCC(=O)O)C(=O)O)cc1 [Methotrexate] | 111 (14.6) mL
CCN1CCC[C@H]1CNC(=O)c1c(OC)ccc(Br)c1OC [Remoxipride] | 253 (10.9) mL
CCN1CCC[C@H]1CNC(=O)c1c(O)c(Cl)cc(Cl)c1OC [Raclopride] | 684 (19.2) mL
Cc1nc2n(c(=O)c1CCN1CCC(c3noc4cc(F)ccc34)CC1)CCCC2O (stereo not drawn) [Paliperidone] | 3,580 (35.8) mL
CC(=O)Nc1ccc(O)cc1 [Acetaminophen] | 363 (33.1) mL
O=C1NC(=O)C(c2ccccc2)(c2ccccc2)N1 [Phenytoin] | 2,050 (7.50) mL

src = paper PMC5702903
